Test system: murine neural precursor cells (neurosphere cultures)
Experimental Details: HTS of LOPAC library against secondary neurosphere cultures, MTT proliferation assay at 3 μM, day 7 (z score, P value)
Format: cell-based, mouse
Settings: LOPAC primary screen, neurosphere MTT proliferation, 3 μM, day 7
Where a name gives a salt, the structure may show the parent alone.
Z score listing for selected compounds.
Quantity Kind: Z score

>>> print(df.to_string())
                                   compound  value_measured
0  CCCCCCCCCCC/C=C\C(C)(C)/C=C\CCCC(=O)O [7,7-Dimethyl-(5Z,8Z)-eicosadienoic acid]          −3.045
1  c1ccc2c(CC3=NCCN3)cccc2c1 [Naphazoline hydrochloride]          −1.724
2  Br.CCCN1CCC2c3cc(O)ccc3CCC21 (racemic) [cis-(±)-8-OH-PBZI hydrobromide]          −2.297
3  COC(=O)[C@@H](N)CCCN=C(N)N[N+](=O)[O-].Cl          −1.411
4  CCN(CC)CCNC(=O)c1ccc(N)cc1 [Procainamide hydrochloride]           0.654
5  CC[N+](CC)(CC)CCOc1cccc(OCC[N+](CC)(CC)CC)c1OCC[N+](CC)(CC)CC [Gallamine triethiodide]          −0.916
6  O=C(c1ccc(OCCN2CCCCC2)cc1)c1c(-c2ccc(O)cc2)sc2cc(O)ccc12 [Raloxifene hydrochloride]          −9.222
7  Cl.FC(F)(F)c1cc(CO[C@H]2CCCN[C@H]2c2ccccc2)cc(C(F)(F)F)c1 [L-733,060 hydrochloride]          −1.465
